Experiment: Intravenous pharmacokinetics
Type: in vivo, BALB/c mice
Details: BALB/c, mouse, in vivo; mice, single IV dose 2 mg/kg
attribute-measured: clearance (mL/min/kg)
Report the value in mL/min/kg with no unit label.

*Q* Recorded clearance for O=C(Nc1nc(-c2ccc(F)cc2F)cs1)c1ccc([N+](=O)[O-])s1 , please?
*A* 58.7

*Q* Can you share its clearance? I mean this compound: O=C(Nc1nc(-c2ccc(F)cc2)cs1)c1ccc([N+](=O)[O-])s1
*A* 36.7

---

System: wild-type E. coli CGSC#7636 (BW25113)
Assay: MIC, wild-type E. coli
Format: cell-based
Conditions: Escherichia coli, BW25113, E. coli WT BW25113; read-out: MIC WT
attribute-measured: MIC (µg/mL)
Report the value in µg/mL with no unit label.

*Q* So what does the record say about MIC for Cc1cc(F)ccc1-c1csc(NC(=O)c2ccc([N+](=O)[O-])s2)n1 [compound 18] ?
*A* 2.5

*Q* Tell me the measured MIC of O=C(Nc1nc(-c2ccc(F)cc2)cs1)c1ccc([N+](=O)[O-])s1 [compound 15] , please.
*A* 1.25

*Q* Bench note: what MIC did O=C(Nc1nc(-c2ccc(F)c(F)c2)cs1)c1ccc([N+](=O)[O-])s1 [compound 11] show?
*A* 0.6

*Q* May I ask what MIC has been recorded for COc1cc(-c2csc(NC(=O)c3ccc([N+](=O)[O-])s3)n2)ccc1C(F)(F)F [compound 23] ?
*A* 2.5

*Q* State the recorded MIC for this entry: O=C(Nc1nc(-c2ccc(F)cc2F)cs1)c1ccc([N+](=O)[O-])s1 [compound 12]
*A* 0.6

*Q* What measured MIC goes with O=C(Nc1nc(-c2ccc(OC(F)(F)F)cc2)cs1)c1ccc([N+](=O)[O-])s1 [compound 16] ?
*A* 5

*Q* GET /values?readout=MIC&item= O=C1CN(/N=C/c2ccc([N+](=O)[O-])o2)C(=O)N1 [nitrofurantoin, reference compound]
*A* 2.5

*Q* Could you share which MIC value was measured for COc1cc(-c2csc(NC(=O)c3ccc([N+](=O)[O-])s3)n2)ccc1F [compound 19] ?
*A* 1.25

*Q* Fill in: MIC of CN(C)[C@@H]1C(O)=C(C(N)=O)C(=O)[C@@]2(O)C(O)=C3C(=O)c4c(O)cccc4[C@@](C)(O)[C@H]3C[C@@H]12 [tetracycline, reference compound] is ___
*A* 1.2
